Data origin, for the record: the METLIN SMRT retention time set (Domingo-Almenara et al. 2019)

- Test Description: gradient 5% acetonitrile 3 min, to 50% in 2 min, to 85% in 15 min, held 3 min, 100 µL/min
- Measurement Setup: column: Zorbax Extend-C18 2.1 x 50 mm; eluents: water / acetonitrile, 0.1% formic acid
Classes based on RP-LC retention time: label 0 (below 700 s), label 1 (700 s to below 900 s), label 2 (900 s or more)

Recorded results for 3 molecules are shown here.
Molecule	Category
CNC(=O)C1CCCN(c2nc3ncn(CC(=O)Nc4cc(C)ccc4OC)c(=O)c3s2)C1 (stereo unspecified)	label 0
Cc1c2cnn(-c3ccccc3)c(=O)c2c(C)n1C(C)C(=O)NCCCN1CCN(C)CC1 (stereo unspecified)	label 0
CCOc1ccccc1NC(=O)C1CCN(S(C)(=O)=O)c2ccccc2O1 (stereo unspecified)	label 2

input: Please let me know in which category the item O=S(=O)(c1ccc(-c2csc(Nc3ccc(Cl)cc3)n2)cc1)N1CCOCC1 belongs.
output: label 2

input: Please let me know in which category the item C(#Cc1ccccc1)CN1CCN(CC#Cc2ccccc2)CC1 belongs.
output: label 0

input: Please let me know in which category the item CCN(CC)C(=O)c1cc2c(s1)N(CC1CC1)CCCC2 belongs.
output: label 2

input: Please let me know in which category the item Cc1ccc(Cn2c(=O)n(CCNC(=O)c3ccsc3)c3ncccc32)cc1 belongs.
output: label 1

input: Please let me know in which category the item CCN1CCCC1CNC(=O)c1ccc2nc(Cc3ccccc3)oc2c1 (stereo unspecified) belongs.
output: label 0

input: Please let me know in which category the item O=C1CN(C(=O)COc2ccccc2)C(c2ccccc2)c2cc(F)ccc2N1 (stereo unspecified) belongs.
output: label 1

input: Please let me know in which category the item Cn1c(=O)sc2cc(S(=O)(=O)N3CCC(C(=O)NCCc4ccccc4)CC3)ccc21 belongs.
output: label 1

---

- Test Description: gradient 5% acetonitrile 3 min, to 50% in 2 min, to 85% in 15 min, held 3 min, 100 µL/min
- Measurement Setup: column: Zorbax Extend-C18 2.1 x 50 mm; eluents: water / acetonitrile, 0.1% formic acid
Assignment: determine reported RP-LC retention time for the given compounds.
Answers without a unit are incomplete; give the number and then its unit.

Cc1ccc(Nc2c(-c3cccc(Cl)c3)nc3ccc(C)cn23)cc1 804 s
CC(=O)N1CCc2[nH]c3ccc(C(=O)NC4CCN(Cc5ccccc5)CC4)cc3c2C1 585 s

Working through the 6 compounds below one at a time, give RP-LC retention time for each.
1. Cc1cc(Nc2ccccc2)nc(N2CCN(C(=O)Nc3ccc(Cl)cc3)CC2)n1
2. CNCc1ccc(-c2cc(Cl)ccc2Cl)o1
3. O=C(Cn1nc2n(c1=O)CCCC2)Nc1ccc(C(F)(F)F)cc1
4. Cc1ccc(-n2nc(C(=O)N3CCN(c4ccccn4)CC3)c3c4ccccc4n(C)c3c2=O)cc1
5. Cc1cccc(S(=O)(=O)N2CCCN(c3ccc(=O)n(-c4ccccc4)n3)CC2)c1
6. COc1ccc(Cl)cc1S(=O)(=O)Nc1cccn2c(C3CCC3)nnc12

output:
761 s
653 s
716 s
705 s
866 s
849 s

Looking up COc1ccc(-c2noc(-c3cccn4c(=O)c5ccccc5nc34)n2)cc1OC , I found its RP-LC retention time recorded as 994 s

---

- Test Description: gradient 5% acetonitrile 3 min, to 50% in 2 min, to 85% in 15 min, held 3 min, 100 µL/min
- Measurement Setup: column: Zorbax Extend-C18 2.1 x 50 mm; eluents: water / acetonitrile, 0.1% formic acid
Measurement Name: RP-LC retention time (s)
One number for each entry, in s.

Example cases with answers are listed next.
Molecule	RP-LC retention time (s)
COc1cc(-c2noc(-c3nc(-c4ccccc4)no3)n2)cc(OC)c1OC	1070
CCc1ccccc1N1C[C@@]23C=C[C@@H](O2)[C@H](C(=O)OC)[C@@H]3C1=O	730
Cc1nnc2cc(N3CCN(C(=O)c4cccc(N(C)C)c4)CC3)cnn12	496
CC(C)Oc1ccc(CN2CC(c3nc(-c4ccsc4)nn3C)C2)cc1	696
CC1=C(c2ccc(F)cc2)S(=O)(=O)N=C1N1CCC(C(=O)NCCc2ccco2)CC1	802

Working through the 5 molecules below one at a time, give RP-LC retention time for each.
1. Cc1cc(C(=O)N2CC(C(=O)NCCc3ccc(F)cc3)C2)no1
2. Cc1nn(CC(=O)N2CCCC2)c(=O)c2nc(-c3ccccc3)sc12
3. CCc1cc(C(=O)Nc2cc(F)ccc2C)nc2ccnn12
4. Cc1cc(O)c(C(C[N+](=O)[O-])c2ccc(Cl)cc2Cl)c(=O)o1 (centres undefined)
5. Cc1ccc(CS(=O)Cc2ccc(C(=O)N3CCN(c4ccccn4)CC3)o2)cc1 (centres undefined)

output:
680
756
1090
803
619

Working through the 4 molecules below one at a time, give RP-LC retention time for each.
1. CCn1nc(CNC(=O)c2cc(C)cc(C)c2)c2ccccc21
2. CCOC(=O)c1nc(N2CCN(c3ccccc3F)CC2)c2c(C)noc2n1
3. CCN(CC)c1ncc2c(n1)CCC(C(=O)N1CCN(c3ccc(C)cc3)CC1)C2 (centres undefined)
4. COc1cccc(COc2cn(C)c(C(=O)N3CCN(c4ncccn4)CC3)cc2=O)c1

output:
938
1010
793
605

Working through the 3 molecules below one at a time, give RP-LC retention time for each.
1. COc1cc(OC)cc(N2C=C(C#N)S(=O)(=O)c3ccc(C)cc32)c1
2. O=C1CCN(S(=O)(=O)c2ccccc2)CCCN(C(=O)Nc2ccc3c(c2)OCCO3)CCN1
3. COc1ccc(OCC2c3cc(OC)c(OC)cc3CCN2C(=O)CC(C)C)cc1 (centres undefined)

output:
1. 948
2. 701
3. 891

Working through the 2 molecules below one at a time, give RP-LC retention time for each.
1. Cc1nn(C)c2nc(OC(C)C(=O)NCc3ccc(F)cc3)cc(C(F)(F)F)c12 (centres undefined)
2. O=C(NC1CCCCC1)C1CC(=O)N(c2ccc3c(c2)CCN3C(=O)C2CC2)C1 (centres undefined)

output:
[960, 733]

---

- Test Description: gradient 5% acetonitrile 3 min, to 50% in 2 min, to 85% in 15 min, held 3 min, 100 µL/min
- Measurement Setup: column: Zorbax Extend-C18 2.1 x 50 mm; eluents: water / acetonitrile, 0.1% formic acid
Measurement Name: RP-LC retention time
Answers without a unit are incomplete; give the number and then its unit.

Molecule	RP-LC retention time
CC1(C(=O)NCc2ccccc2)CN(S(C)(=O)=O)CC(=O)N1Cc1cccc(Br)c1 (stereo not given)	815 s

Working through the 4 molecules below one at a time, give RP-LC retention time for each.
1. Fc1ccc(-c2n[nH]c(C3CCN(Cc4ccoc4)CC3)n2)cc1
2. O=C(NCc1ccc(Cl)cc1)c1c(O)c2cccnc2n(-c2ccccc2)c1=O
3. Cc1ccc(NC(=O)N2CC(n3ccnc3C(C)C)C2)cc1C
4. Cc1cccc(CN2C(=O)CCc3c(C)nc(-c4ccncc4)nc32)c1

output:
595 s
1260 s
642 s
764 s

---

- Test Description: gradient 5% acetonitrile 3 min, to 50% in 2 min, to 85% in 15 min, held 3 min, 100 µL/min
- Measurement Setup: column: Zorbax Extend-C18 2.1 x 50 mm; eluents: water / acetonitrile, 0.1% formic acid
Entries whose RP-LC retention time is below 600 s take TRUE; entries at or above 600 s take FALSE.

Recorded results for 5 compounds are shown here.
Compound	Category
O=C(CN1C[C@H]2C[C@H](C1)[C@H]1CCCC(=O)N1C2)NCC1CC1	TRUE
O=C(c1cc(C2CC2)on1)N1CCCC1	FALSE
CCN1CCN(C(=O)C2CCCN(S(=O)(=O)c3ccc(OC)c(C)c3)C2)CC1 (stereo not given)	FALSE
CN1C(=O)c2cccnc2Sc2cc(C(=O)NCc3ccc(Cl)cc3)ccc21	FALSE
O=C(Cn1cnc2ccccc21)NCCOc1cccc2cccnc12	TRUE

input: Check if RP-LC retention time falls below 600 s for COc1cc(Cl)c(C)cc1N1C=C(C#N)S(=O)(=O)c2ccc(F)cc21 .
output: FALSE

input: Check if RP-LC retention time falls below 600 s for COc1ccc(N2CC(c3noc(-c4ccc(OC)cc4C)n3)CC2=O)cc1 (stereo not given) .
output: FALSE

---

- Test Description: gradient 5% acetonitrile 3 min, to 50% in 2 min, to 85% in 15 min, held 3 min, 100 µL/min
- Measurement Setup: column: Zorbax Extend-C18 2.1 x 50 mm; eluents: water / acetonitrile, 0.1% formic acid
# RP-LC retention time >= 800 s gives met, anything below gives not met

Recorded results for 7 molecules are shown here.
Smiles Repr	Category
COc1ccccc1CNC(=O)CSc1cc(N2CCN(c3ccccc3OC)CC2)ncn1	met
COCCNC(=O)CSc1nc(-c2ccc(F)cc2)[nH]c1-c1ccccc1	not met
COc1ccc(-n2c(N)cc(=O)nc2SCC(=O)NC2CCCCC2)cc1	not met
CCCNC(=O)c1ccc2c(c1)CCCN2S(=O)(=O)CC	not met
COc1ccc(CN2C=C(C(=O)OCc3nc(-c4cccs4)no3)C(C)=NS2(=O)=O)cc1	met
CC[C@H](C)NC(=O)Cc1nnc(-c2ccc(OC)cc2)o1	not met
CCOC(=O)N1CCN(c2cc(C(=O)O)c3cc(NC(=O)COc4ccccc4)ccc3n2)CC1	not met

Consider the record given below.
input: Please indicate if the recorded RP-LC retention time for CC(C)c1ccc(Oc2nccn3c(=O)n(CC(=O)Nc4ccc(Br)cc4)nc23)cc1 meets or exceeds 800 s.
output: met
